Assay read-out cytotoxicity; system under study: BHK-R cells.
recorded-endpoint: cytotoxicity

INSERT INTO assay_data (compound, recorded_endpoint, measurement) VALUES
  ('Cc1c(O)c(=O)ccn1C [DEF, deferiprone]', 'cytotoxicity', 'cytotoxicity was minimal'),
  ('Cc1cc(C2CCCCC2)n(O)c(=O)c1 [CPX, ciclopirox]', 'cytotoxicity', 'cytotoxicity was minimal'),
  ('NCCCCCCCN=C(N)N [GC7]', 'cytotoxicity', 'cytotoxicity was minimal');
